# System: Hepatitis C virus
# assayRemarks: Antiviral activity against Hepatitis C virus genotype 1b I389luc-ubi-neo/NS3-3'/5.1 subgenomic replicon infected in human Huh5-2 cells after 4 days by luciferase assay
# Assay type: functional, cell-based, Hepacivirus hominis
# testSettings: Huh-5-2, 96 h
metricName: EC50 (nM)
// units = nM; emit number, no label

# EC50 of CNC(=O)/C=C/C=C(\C)[C@@H]1C/C=C/C=C/[C@H](O)[C@H](C)[C@@H](O)[C@@H](CCC(C)=O)C(=O)N[C@@H](C(C)C)C(=O)N[C@@H](Cc2cccc(O)c2)C(=O)N2CCCC(N2)C(=O)O1 (stereo in doubt) = 8000

Lab note: CC(=O)CC[C@H]1C(=O)N[C@@H](C(C)C)C(=O)N[C@@H](Cc2cccc(O)c2)C(=O)N2CCCC(N2)C(=O)O[C@H](/C(C)=C/C=C/C(=O)N(C)c2ccccn2)C/C=C/C=C/[C@H](O)[C@H](C)[C@H]1O (some centres undefined) gave EC50 of 2010

So for CC(=O)CC[C@H]1C(=O)N[C@@H](C(C)C)C(=O)N[C@@H](Cc2cccc(O)c2)C(=O)N2CCCC(N2)C(=O)O[C@H](/C(C)=C/C=C/C(=O)Nc2cccnc2)C/C=C/C=C/[C@H](O)[C@H](C)[C@H]1O (stereo in doubt) , the logged EC50 turned out to be 2480

CC(=O)CC[C@H]1C(=O)N[C@@H](C(C)C)C(=O)N[C@@H](Cc2cccc(O)c2)C(=O)N2CCCC(N2)C(=O)O[C@H](/C(C)=C/C=C/C(=O)N(C)C2CCCCC2)C/C=C/C=C/[C@H](O)[C@H](C)[C@H]1O (some centres undefined) yielded EC50 of 148
